- tested-system: HIV-1 Env of isolate MGRM-D-013 (subtype D) (HIV-1)
- experiment: cell-based or functional assay
The entries below come with measured IC50 (neutralization) values attached.

Previously resolved entries follow.
INSERT INTO measurements (binder, quantity_name, recorded_measurement) VALUES
  ('PGT-128 (antibody, V domains shown) VH: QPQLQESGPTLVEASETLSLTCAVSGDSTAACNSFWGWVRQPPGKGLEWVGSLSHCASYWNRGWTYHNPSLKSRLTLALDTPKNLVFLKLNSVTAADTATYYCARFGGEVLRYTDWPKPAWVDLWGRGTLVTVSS VL: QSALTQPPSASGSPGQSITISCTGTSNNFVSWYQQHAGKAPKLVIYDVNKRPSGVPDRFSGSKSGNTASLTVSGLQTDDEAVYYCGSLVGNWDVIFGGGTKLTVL', 'IC50 (neutralization)', '8.85 µg/mL'),
  ('PGT-136 (antibody, V domains shown) VH: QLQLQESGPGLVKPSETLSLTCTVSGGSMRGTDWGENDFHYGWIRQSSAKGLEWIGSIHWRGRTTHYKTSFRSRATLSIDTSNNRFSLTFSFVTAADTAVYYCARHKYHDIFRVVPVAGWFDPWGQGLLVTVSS VL: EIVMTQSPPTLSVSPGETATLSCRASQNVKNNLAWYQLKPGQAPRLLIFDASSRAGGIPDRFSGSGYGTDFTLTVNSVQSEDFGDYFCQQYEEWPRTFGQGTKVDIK', 'IC50 (neutralization)', '> 50 µg/mL'),
  ('PGT-125 (antibody, V domains shown) VH: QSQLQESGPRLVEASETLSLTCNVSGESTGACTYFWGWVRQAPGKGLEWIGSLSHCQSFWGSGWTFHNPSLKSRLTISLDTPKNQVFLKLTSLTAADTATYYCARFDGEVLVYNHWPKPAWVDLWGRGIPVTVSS VL: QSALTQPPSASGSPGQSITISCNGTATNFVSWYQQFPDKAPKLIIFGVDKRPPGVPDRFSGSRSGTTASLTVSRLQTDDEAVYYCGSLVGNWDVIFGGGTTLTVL', 'IC50 (neutralization)', '> 50 µg/mL');

Here is another binder to look at.
Asked: Tell me the measured IC50 (neutralization) of PGT-137 (antibody, V domains shown) VH: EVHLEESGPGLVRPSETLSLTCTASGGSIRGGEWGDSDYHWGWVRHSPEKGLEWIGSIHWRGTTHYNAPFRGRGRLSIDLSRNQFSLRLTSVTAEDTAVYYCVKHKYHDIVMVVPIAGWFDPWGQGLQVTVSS VL: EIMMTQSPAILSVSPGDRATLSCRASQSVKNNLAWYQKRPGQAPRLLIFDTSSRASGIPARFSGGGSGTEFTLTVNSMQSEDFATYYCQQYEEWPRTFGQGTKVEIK , please.
Given back: > 50 µg/mL
